- PROTOCOL_DETAILS: T. gondii growth inhibition with IFN-gamma, primary screen, cell-based (AID 1259416);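 note: host cells are HeLa cells infected with Toxoplasma gondii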
- TEST_SETTINGS: Toxoplasma gondii growth in IFN-gamma-treated host cells; hits give low values; concentration not given here
In all, about 69,000 compounds went through this assay and about 2,600 (3.8%) were called active. The full list was thinned out, with actives kept by preference.
ENDPOINT_LABEL: activity change, negative = inhibition (%)

                                    compound  result_unit  recorded_number
 0  Cn1nnc(-c2ccc(C(=O)NC(CN3CCCCC3)c3ccccc3)cc2)n1 (stereo not drawn)            %           -0.396
 1  CC(C)NC(=O)COc1cccc(-c2nc(Nc3ccc4[nH]ncc4c3)c3ccccc3n2)c1            %            -76.1
 2  CCOC(=O)CCSc1nnc(CNc2cccc(Cl)c2)n1CCc1ccccc1            %             19.4
 3       CCN(CC)Cc1cnc2n1CCN(Cc1csc(C)n1)CC2            %              4.3
 4  O=C(NCc1cccnc1)C1=NOC2(CCCN(C(=O)Cc3ccc(F)cc3)C2)C1 (stereo not drawn)            %             53.7
 5  N#C[C@H]1N[C@H](CO)[C@H]1c1ccc(-c2cccc(F)c2)cc1            %             17.8
 6  CC(=O)Nc1ccc(Nc2nc(-c3nnc(-c4cccc(C)c4)o3)nc3ccccc23)cc1            %              494
 7  O=C(C1CCCCC1)N1CCC2(CC1)Nc1ccc(Cl)cc1-n1cccc12            %            -85.4
 8  CCCN1CCN(C(=O)c2nc(-c3cccc(F)c3)n3c2CCCCC3)CC1            %             3.76
 9   Fc1ccc(Cl)cc1-c1nc(Nc2ccncc2)c2nccnc2n1            %              -81
10  O=C(CC1COCCN1)NCCC(c1ccccc1)c1ccccc1 (stereo not drawn)            %            -9.21
11  CN(C)C(=O)CN1CC2CN(Cc3ccncc3)CCC2(c2ccccc2)C1 (stereo not drawn)            %            -2.67
12  CO[C@@H]1CN(C)C(=O)c2cc(NC(C)=O)ccc2OC[C@H](C)N(C(=O)Cc2ccccn2)C[C@@H]1C            %              163
13                  CSc1nn2c(C)cc(C)nc2c1C#N            %             44.4
14  COc1ccc(OCC(=O)N2CCC3(CC2)Nc2ccc(Cl)cc2-n2cccc23)cc1            %             25.9
15  CC(=O)N1CC2(CCN(C(=O)C3CCNCC3)CC2)CC1C(=O)O (stereo not drawn)            %            -40.5
16  CN(Cc1cccnc1)C1COC2(CCN(Cc3cccs3)CC2)C1 (stereo not drawn)            %             1.79
17            COCCN(Cc1cccs1)C(=O)c1ccncc1Cl            %             3.28
18          CC(C)Oc1cccc(-c2csc(C(N)=O)c2)c1            %             65.6
19            Cc1[nH]c2ccccc2c1Sc1ccc(Cl)cc1            %            -55.7
20  COc1ccc(-c2nc(Nc3ccc(C(C)C)cc3)c3ccccc3n2)cc1            %              -22
21  COc1cccc(-c2cn[nH]c2C2CCCN2S(=O)(=O)c2ccc(Cl)cc2)c1 (stereo not drawn)            %            -31.9
22        CSc1nnc(SC)n1CCNC(=O)Nc1cccc(Cl)c1            %            -80.6
